Each recorded value in this set is attributed to paper PMC3401278.

study_target: E. coli LpxA (Escherichia coli, UniProt P0A722)
Sequence (P0A722 whole entry): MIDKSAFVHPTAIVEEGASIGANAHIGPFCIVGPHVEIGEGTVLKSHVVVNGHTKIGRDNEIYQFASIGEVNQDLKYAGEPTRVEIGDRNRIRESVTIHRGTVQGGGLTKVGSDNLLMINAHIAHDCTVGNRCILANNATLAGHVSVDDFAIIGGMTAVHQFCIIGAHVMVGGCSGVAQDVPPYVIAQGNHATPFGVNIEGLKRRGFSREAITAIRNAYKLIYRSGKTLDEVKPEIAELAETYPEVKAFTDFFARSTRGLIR
measurement_protocol: Fluorescence polarization competition binding assay, LpxA
pKd: −log10 of the molar value. Where no end group is shown, it is not given here.
recorded_metric: pKd

• SENNFMLPLLPL-NH2 [RJPXD34] = < 3.52
